For each record, write down the corresponding IC50 Ratio (vs PYY(3-36)).
- measured.on: T1, human Y2 receptor (human, UniProt P49146 1-381)
- T1 construct: whole, on cells; used as membrane fraction of hY2R/CHO cells; also called human NPY2R; hY2R
- T1 sequence (looked up): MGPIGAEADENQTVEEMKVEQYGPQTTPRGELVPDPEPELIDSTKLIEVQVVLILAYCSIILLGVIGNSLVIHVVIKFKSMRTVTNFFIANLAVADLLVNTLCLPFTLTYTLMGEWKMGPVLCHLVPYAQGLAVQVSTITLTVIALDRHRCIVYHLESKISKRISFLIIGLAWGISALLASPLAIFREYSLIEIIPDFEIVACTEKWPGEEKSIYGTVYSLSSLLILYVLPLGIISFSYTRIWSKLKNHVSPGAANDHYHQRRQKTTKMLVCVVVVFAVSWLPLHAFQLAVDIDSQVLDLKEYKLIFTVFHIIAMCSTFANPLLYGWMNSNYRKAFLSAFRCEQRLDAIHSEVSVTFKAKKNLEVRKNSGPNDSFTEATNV
- run.description: RBA: [125I]-PYY displacement, hY2R/CHO membranes
Starred links: 1 amine or outer side, 2 acyl side, 3 side chain; linkers in the order of their positions; H or OH if unused. Non-standard residues stand in square brackets, D forms with d. *: point of attachment. 2‑hydroxyethylcarbamoyl = O=C(NCCO)*; Cha = N[C@@H](CC1CCCCC1)C(=O)O; Suc = O=C(CCC(=O)[*:2])[*:1]; Aib = CC(C)(N)C(=O)O
Give bare numbers, in ratio.

Suc-S[dP]RH[Cha][Cha]NK[Aib]TRQR[Cha]-NH2 (SMILES C[C@@H](O)[C@H](NC(=O)C(C)(C)NC(=O)[C@H](CCCCN)NC(=O)[C@H](CC(N)=O)NC(=O)[C@H](CC1CCCCC1)NC(=O)[C@H](CC1CCCCC1)NC(=O)[C@H](Cc1c[nH]cn1)NC(=O)[C@H](CCCNC(=N)N)NC(=O)[C@H]1CCCN1C(=O)[C@H](CO)NC(=O)CCC(=O)O)C(=O)N[C@@H](CCCNC(=N)N)C(=O)N[C@@H](CCC(N)=O)C(=O)N[C@@H](CCCNC(=N)N)C(=O)N[C@@H](CC1CCCCC1)C(N)=O, also called compound No. 167) [3-Carboxypropionyl-[D-Pro24, Cha27,28,36, Lys30, Aib31]-PYY(23-36)]	0.64

Alright, here's another binder for you.
Query string: What value of IC50 Ratio (vs PYY(3-36)) has been recorded for this entry: {2‑hydroxyethylcarbamoyl}-E[dP]RH[Cha][Cha]NK[Aib]TRQR[Cha]-NH2 (SMILES C[C@@H](O)[C@H](NC(=O)C(C)(C)NC(=O)[C@H](CCCCN)NC(=O)[C@H](CC(N)=O)NC(=O)[C@H](CC1CCCCC1)NC(=O)[C@H](CC1CCCCC1)NC(=O)[C@H](Cc1c[nH]cn1)NC(=O)[C@H](CCCNC(=N)N)NC(=O)[C@H]1CCCN1C(=O)[C@H](CCC(=O)O)NC(=O)NCCO)C(=O)N[C@@H](CCCNC(=N)N)C(=O)N[C@@H](CCC(N)=O)C(=O)N[C@@H](CCCNC(=N)N)C(=O)N[C@@H](CC1CCCCC1)C(N)=O, also called compound No. 192) [2-Hydroxyethylcarbamoyl-[Glu23, D-Pro24, Cha27,28,36, Lys30, Aib31]-PYY(23-36)]
Result string: 1.3
